molecular target: T1, recombinant biotinylated CD71 extracellular domain (Sino Biologics) with an N-terminal 6His tag (human, UniProt P02786 89-760, biotinylated (site not stated)); experiment: primary solution ELISA screen, signal on hCD71 over HSA
T1 construct: extracellular domain; also called hCD71; huCD71 ECD
T1 sequence (P02786 other isoform, or with tags, fused parts or gaps): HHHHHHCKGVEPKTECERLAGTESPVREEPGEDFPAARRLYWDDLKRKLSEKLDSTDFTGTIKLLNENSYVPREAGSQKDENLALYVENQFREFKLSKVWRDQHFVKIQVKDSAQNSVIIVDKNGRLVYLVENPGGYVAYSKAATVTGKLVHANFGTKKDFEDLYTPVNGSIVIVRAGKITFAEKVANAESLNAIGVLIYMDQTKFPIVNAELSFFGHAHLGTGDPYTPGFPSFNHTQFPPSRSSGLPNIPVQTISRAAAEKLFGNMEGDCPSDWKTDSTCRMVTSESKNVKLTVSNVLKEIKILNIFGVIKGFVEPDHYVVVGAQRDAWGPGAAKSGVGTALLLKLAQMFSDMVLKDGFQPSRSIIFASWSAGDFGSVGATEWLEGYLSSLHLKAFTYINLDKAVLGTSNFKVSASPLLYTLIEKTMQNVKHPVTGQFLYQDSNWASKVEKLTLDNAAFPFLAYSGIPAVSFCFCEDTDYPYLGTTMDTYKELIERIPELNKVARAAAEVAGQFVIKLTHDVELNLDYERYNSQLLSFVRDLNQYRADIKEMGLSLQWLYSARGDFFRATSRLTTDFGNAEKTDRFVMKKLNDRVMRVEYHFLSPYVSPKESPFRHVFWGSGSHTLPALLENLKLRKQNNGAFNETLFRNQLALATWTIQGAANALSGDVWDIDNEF
test.readout: hCD71:HSA

Given the entry SEQ ID NO 70 (designed binder, not shown: small tags and cut ends, FN3 domain, hit of the apical domain panning) MLPAPKNLVVSRVTEDSARLSWQGVARAFDSFLITYREQIFAGEVIVLTVPGSERSYDLTGLKPGTEYPVWIQGVKGGDLSNPLSAIFTT , report its measured hCD71:HSA. 10
